Where these numbers come from: paper PMC8405091

Tested on: A2780 cells
Test: MTT antiproliferative assay, A2780
Type: cell-based, human
Details: Homo sapiens, A2780, 72 h, read-out: Growth inhibition; % ± SEM, A2780, 30 μM, 72 h
Recorded inhibition at 30 µM values for a group of compounds are listed next.
Assay Readout: inhibition at 30 µM (%)

> print(dat)
                                   compound  measured
1  COc1ccc2c(c1)CC[C@@H]1[C@@H]2CC[C@@]2(C)C(=O)[C@@H](CP(=O)(c3ccc(C)cc3)c3ccc(C)cc3)C[C@@H]12 [Compound 14]       100
2  C[C@@]12CC[C@@H]3c4ccc(OCc5ccccc5)cc4CC[C@H]3[C@@H]1C[C@@H](CP(=O)(c1ccccc1)c1ccccc1)C2=O [Compound 11]      21.9
3  Cc1ccc(P(=O)(C[C@H]2C[C@H]3[C@@H]4CCc5cc(OCc6ccccc6)ccc5[C@H]4CC[C@@]3(C)C2=O)c2ccc(C)cc2)cc1 [Compound 16]      67.3
4  COc1ccc2c(c1)CC[C@@H]1[C@@H]2CC[C@@]2(C)C(=O)[C@H](CP(=O)(c3ccc(C)cc3)c3ccc(C)cc3)C[C@@H]12 [Compound 13]      97.8

###

System: T47D cells
Assay: MTT antiproliferative assay, T47D
Type: cell-based, human
Details: 72 h, read-out: calculated IC50 value
pIC50: −log10 of the molar value.
Assay Readout: pIC50

> print(dat)
                                   compound  assay.readout  measured
1  N.N.[Cl][Pt][Cl] [CIS, Cisplatin, reference compound]          pIC50      4.72

###

Test system: A2780 cells
Experiment: MTT antiproliferative assay, A2780
Format: cell-based, human
Conditions: Homo sapiens, A2780, 72 h, read-out: Growth inhibition; % ± SEM, A2780, 30 μM, 72 h
Mark T for reported inhibition at 30 µM of 50% or greater; mark F for anything smaller.

> print(dat)
                                   molecule  group.label
1  COc1ccc2c(c1)CC[C@@H]1[C@@H]2CC[C@@]2(C)C(=O)[C@@H](CP(=O)(c3ccccc3)c3ccccc3)C[C@@H]12            T
2  COc1ccc2c(c1)CCC1C2CCC2(C)C(=O)C(CP(=O)(c3ccc4ccccc4c3)c3ccc4ccccc4c3)CC12 (stereo not drawn)            F
3  C[C@@]12CC[C@@H]3c4ccc(OCc5ccccc5)cc4CC[C@H]3[C@@H]1C[C@H](CP(=O)(c1ccccc1)c1ccccc1)C2=O            T
4  COc1ccc2c(c1)CC[C@@H]1[C@@H]2CC[C@@]2(C)C(=O)[C@H](CP(=O)(c3ccccc3)c3ccccc3)C[C@@H]12            T
5  CC12CCC3c4ccc(OCc5ccccc5)cc4CCC3C1CC(CP(=O)(c1ccc3ccccc3c1)c1ccc3ccccc3c1)C2=O (stereo not drawn)            F

###

Recorded inhibition at 30 µM values for a group of compounds are listed next.
System: UPCI-SCC-154 cells
Assay: MTT antiproliferative assay, UPCI-SCC-154
Assay type: cell-based, human
Conditions: Homo sapiens, 72 h, read-out: Growth inhibition; % ± SEM, UPCI-SCC-154, 30 μM, 72 h
Assay Readout: inhibition at 30 µM (%)

> print(dat)
                                   compound       target.system        assay.readout  measured
1  COc1ccc2c(c1)CC[C@@H]1[C@@H]2CC[C@@]2(C)C(=O)[C@H](CP(=O)(c3ccccc3)c3ccccc3)C[C@@H]12 [Compound 9]  UPCI-SCC-154 cells  inhibition at 30 µM      99.8
2  COc1ccc2c(c1)CCC1C2CCC2(C)C(=O)C(CP(=O)(c3ccc4ccccc4c3)c3ccc4ccccc4c3)CC12 (stereo not drawn) [Compound 17]  UPCI-SCC-154 cells  inhibition at 30 µM      20.3
3  Cc1ccc(P(=O)(C[C@@H]2C[C@H]3[C@@H]4CCc5cc(OCc6ccccc6)ccc5[C@H]4CC[C@@]3(C)C2=O)c2ccc(C)cc2)cc1 [Compound 15]  UPCI-SCC-154 cells  inhibition at 30 µM      34.7
4  Cc1ccc(P(=O)(C[C@H]2C[C@H]3[C@@H]4CCc5cc(OCc6ccccc6)ccc5[C@H]4CC[C@@]3(C)C2=O)c2ccc(C)cc2)cc1 [Compound 16]  UPCI-SCC-154 cells  inhibition at 30 µM      31.6
5  COc1ccc2c(c1)CC[C@@H]1[C@@H]2CC[C@@]2(C)C(=O)[C@@H](CP(=O)(c3ccccc3)c3ccccc3)C[C@@H]12 [Compound 10]  UPCI-SCC-154 cells  inhibition at 30 µM      24.3
6  C[C@@]12CC[C@@H]3c4ccc(OCc5ccccc5)cc4CC[C@H]3[C@@H]1C[C@H](CP(=O)(c1ccccc1)c1ccccc1)C2=O [Compound 12]  UPCI-SCC-154 cells  inhibition at 30 µM      75.5
7  C[C@@]12CC[C@@H]3c4ccc(OCc5ccccc5)cc4CC[C@H]3[C@@H]1C[C@@H](CP(=O)(c1ccccc1)c1ccccc1)C2=O [Compound 11]  UPCI-SCC-154 cells  inhibition at 30 µM      38.6
8  COc1ccc2c(c1)CC[C@@H]1[C@@H]2CC[C@@]2(C)C(=O)[C@H](CP(=O)(c3ccc(C)cc3)c3ccc(C)cc3)C[C@@H]12 [Compound 13]  UPCI-SCC-154 cells  inhibition at 30 µM      75.9
9  COc1ccc2c(c1)CC[C@@H]1[C@@H]2CC[C@@]2(C)C(=O)[C@@H](CP(=O)(c3ccc(C)cc3)c3ccc(C)cc3)C[C@@H]12 [Compound 14]  UPCI-SCC-154 cells  inhibition at 30 µM        87

###

Tested on: UPCI-SCC-131 cells
Assay: MTT antiproliferative assay, UPCI-SCC-131
Type: cell-based, human
Conditions: Homo sapiens, 72 h, read-out: Growth inhibition; % ± SEM, UPCI-SCC-131, 30 μM, 72 h
Recorded inhibition at 30 µM values for a group of molecules are listed next.
Assay Readout: inhibition at 30 µM (%)

> print(dat)
                    structure.smiles.string  measured
1  Cc1ccc(P(=O)(C[C@@H]2C[C@H]3[C@@H]4CCc5cc(OCc6ccccc6)ccc5[C@H]4CC[C@@]3(C)C2=O)c2ccc(C)cc2)cc1      60.2
2  COc1ccc2c(c1)CC[C@@H]1[C@@H]2CC[C@@]2(C)C(=O)[C@@H](CP(=O)(c3ccccc3)c3ccccc3)C[C@@H]12      72.9
3  Cc1ccc(P(=O)(C[C@H]2C[C@H]3[C@@H]4CCc5cc(OCc6ccccc6)ccc5[C@H]4CC[C@@]3(C)C2=O)c2ccc(C)cc2)cc1      67.4
4  C[C@@]12CC[C@@H]3c4ccc(OCc5ccccc5)cc4CC[C@H]3[C@@H]1C[C@@H](CP(=O)(c1ccccc1)c1ccccc1)C2=O      62.5
5  COc1ccc2c(c1)CC[C@@H]1[C@@H]2CC[C@@]2(C)C(=O)[C@@H](CP(=O)(c3ccc(C)cc3)c3ccc(C)cc3)C[C@@H]12      97.3
6  COc1ccc2c(c1)CC[C@@H]1[C@@H]2CC[C@@]2(C)C(=O)[C@H](CP(=O)(c3ccccc3)c3ccccc3)C[C@@H]12      99.3

###

Tested on: HeLa cells
Experiment: MTT antiproliferative assay, HeLa
Format: cell-based, human
Conditions: 72 h, read-out: calculated IC50 value
pIC50: −log10 of the molar value.
Assay Readout: pIC50

> print(dat)
                                   molecule  measured
1  N.N.[Cl][Pt][Cl] [CIS, Cisplatin, reference compound]      4.91

###

Tested on: A2780 cells
Test: MTT antiproliferative assay, A2780
Format: cell-based, human
Conditions: Homo sapiens, A2780, 72 h, read-out: Growth inhibition; % ± SEM, A2780, 10 μM, 72 h
Recorded inhibition at 10 µM values for a group of compounds are listed next.
Assay Readout: inhibition at 10 µM

> print(dat)
                    structure.smiles.string  measured
1  Cc1ccc(P(=O)(C[C@@H]2C[C@H]3[C@@H]4CCc5cc(OCc6ccccc6)ccc5[C@H]4CC[C@@]3(C)C2=O)c2ccc(C)cc2)cc1     < 20%
2  C[C@@]12CC[C@@H]3c4ccc(OCc5ccccc5)cc4CC[C@H]3[C@@H]1C[C@H](CP(=O)(c1ccccc1)c1ccccc1)C2=O     < 20%
3  COc1ccc2c(c1)CC[C@@H]1[C@@H]2CC[C@@]2(C)C(=O)[C@@H](CP(=O)(c3ccccc3)c3ccccc3)C[C@@H]12     < 20%
4  COc1ccc2c(c1)CC[C@@H]1[C@@H]2CC[C@@]2(C)C(=O)[C@H](CP(=O)(c3ccccc3)c3ccccc3)C[C@@H]12     47.2%
